The values you see were collected from PubChem BioAssay (NCI).

Experiment: NCI Yeast Anticancer Drug Screen. Data for the mec2-1 strain (AID 157)
Details: S. cerevisiae mec2-1 strain, at 50.0 µM, active compounds read high
Experimental: Growth inhibition of yeast strains with defined genetic alterations is measured as a screen for potential anti-cancer activity. Selected strains with alterations in DNA damage repair or cell cycle control were exposed to compounds and growth inhibition was measured relative to vehicle treated controls. The strain used in this assay is mec2-1
About 79,000 compounds went through this panel and 15% of them were active in at least one assay; those are over-represented in the sample as a whole.
Recorded growth inhibition for the following compounds
Give just the number in %; leave the unit off.

Here is how some compounds turned out for growth inhibition.
COMPOUND: COC1=C(C(c2cc(OC)c(OC)c(OC)c2)c2cc3c(cc2OC)OCO3)C(=O)OC1 (configuration not stated)
OUTPUT_UNIT: %
growth inhibition: -5.9

COMPOUND: O=C(O)CCc1ccc(-c2ccccc2)[nH]1
OUTPUT_UNIT: %
growth inhibition: -6.95

COMPOUND: Cc1ccc(N=Cc2cccs2)c(Br)c1
OUTPUT_UNIT: %
growth inhibition: -20.1

COMPOUND: O=[N+]([O-])c1ccc(F)c(Cl)c1
OUTPUT_UNIT: %
growth inhibition: -25.1

COMPOUND: O=C1CSC(c2c[nH]c3ccccc23)N1c1cccc([N+](=O)[O-])c1 (configuration not stated)
OUTPUT_UNIT: %
growth inhibition: -39.5

Inquiry: Fill in: growth inhibition of `COc1cc([C@@H]2c3cc4c(cc3[C@H](OC(=O)CCCC(=O)O)[C@H]3COC(=O)[C@H]23)OCO4)cc(OC)c1OC` is ___
Reply text: 23.2

Inquiry: Bench note: what growth inhibition did `CC(C)(CO)NO` show?
Reply text: -6.9

Inquiry: Quick one: growth inhibition for `O=C(Cl)c1cc(-c2ccc(Cl)cc2)nc2c(-c3ccccc3)cccc12` ?
Reply text: 9.15

----------
experiment: NCI Yeast Anticancer Drug Screen. Data for the sgs1 mgt1 strain (AID 161);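 note: 0% = growth of cultures given vehicle only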; conditions: S. cerevisiae sgs1 mgt1 strain, at 50.0 µM, active compounds read high
Compounds without any hit were thinned out: in the full panel of roughly 79,000, 15% have a hit. Activity calls are given as the source filed them. Rule as the data show it: active = growth inhibition above about 70%; inactive = the rest.
Entries annotated with measured growth inhibition

Sample records with growth inhibition:
COMPOUND: CCCCC1(C=O)NC(=O)N(C)C1=O (stereo not given)
growth inhibition: -10.8% (inactive)
--
COMPOUND: COC(=O)/C=C1\SC(OC)(N(C)c2ccccc2)N(C)C1=O (stereo not given)
growth inhibition: 22.7% (inactive)
--
COMPOUND: Nc1ccc(C2NC=CN2)cc1
growth inhibition: -0.7% (inactive)

Inquiry: Given Cc1ccc(N(C(=O)Nc2ccccc2)C2=NCC(C)S2)cc1C (stereo not given) , state its recorded growth inhibition.
Reply text: -37.4% (inactive)

----------
experiment: NCI Yeast Anticancer Drug Screen. Data for the mlh1 rad18 strain (AID 175); conditions: S. cerevisiae mlh1 rad18 strain growth inhibition; at 50.0 µM; active compounds read high
About 79,000 compounds went through this panel and 15% of them were active in at least one assay; those are over-represented in the sample as a whole.
READOUT_KIND: growth inhibition (%)
Write the number in % without appending the unit.

See these solved cases before continuing.
COMPOUND: Oc1cc2c(cc1O)C1c3ccc(O)c(O)c3OCC1(O)C2 (stereo not given)
OUTPUT_UNIT: %
growth inhibition: 22.4

COMPOUND: O=C(Nc1ccccc1)c1ccc(I)cc1
OUTPUT_UNIT: %
growth inhibition: -25.3

COMPOUND: O=C1C2CC3CC(C2)CC1C3
OUTPUT_UNIT: %
growth inhibition: 14.9

COMPOUND: N#Cc1ccc(N=NN2CCOC2)cc1
OUTPUT_UNIT: %
growth inhibition: 44.9

Inquiry: Sample `CC1=CC(=O)OC1=O` — what was its growth inhibition?
Reply text: 22
